Tested on: HEPG-2 (Liver) human cancer cells
Test: SRB cytotoxicity assay, HEPG-2 cells
Type: cell-based
Settings: HepG2, 48 h, read-out: IC50 against HEPG-2 cells
Measured property: IC50 (µM)
Dear colleague, please return just the value in µM, with no unit written.

// IC50 (HEPG-2 (Liver) human cancer cells) for `O=[N+]([O-])c1ccc(NC(=S)NN=Cc2ccccn2)cc1` = 80
